study_target: human MDR1 (P-gp) (Homo sapiens, UniProt P08183)
Construct: expressed in transfected cells; host or cells: MDCKII (Madin-Darby canine kidney) cells
Sequence (P08183 whole entry): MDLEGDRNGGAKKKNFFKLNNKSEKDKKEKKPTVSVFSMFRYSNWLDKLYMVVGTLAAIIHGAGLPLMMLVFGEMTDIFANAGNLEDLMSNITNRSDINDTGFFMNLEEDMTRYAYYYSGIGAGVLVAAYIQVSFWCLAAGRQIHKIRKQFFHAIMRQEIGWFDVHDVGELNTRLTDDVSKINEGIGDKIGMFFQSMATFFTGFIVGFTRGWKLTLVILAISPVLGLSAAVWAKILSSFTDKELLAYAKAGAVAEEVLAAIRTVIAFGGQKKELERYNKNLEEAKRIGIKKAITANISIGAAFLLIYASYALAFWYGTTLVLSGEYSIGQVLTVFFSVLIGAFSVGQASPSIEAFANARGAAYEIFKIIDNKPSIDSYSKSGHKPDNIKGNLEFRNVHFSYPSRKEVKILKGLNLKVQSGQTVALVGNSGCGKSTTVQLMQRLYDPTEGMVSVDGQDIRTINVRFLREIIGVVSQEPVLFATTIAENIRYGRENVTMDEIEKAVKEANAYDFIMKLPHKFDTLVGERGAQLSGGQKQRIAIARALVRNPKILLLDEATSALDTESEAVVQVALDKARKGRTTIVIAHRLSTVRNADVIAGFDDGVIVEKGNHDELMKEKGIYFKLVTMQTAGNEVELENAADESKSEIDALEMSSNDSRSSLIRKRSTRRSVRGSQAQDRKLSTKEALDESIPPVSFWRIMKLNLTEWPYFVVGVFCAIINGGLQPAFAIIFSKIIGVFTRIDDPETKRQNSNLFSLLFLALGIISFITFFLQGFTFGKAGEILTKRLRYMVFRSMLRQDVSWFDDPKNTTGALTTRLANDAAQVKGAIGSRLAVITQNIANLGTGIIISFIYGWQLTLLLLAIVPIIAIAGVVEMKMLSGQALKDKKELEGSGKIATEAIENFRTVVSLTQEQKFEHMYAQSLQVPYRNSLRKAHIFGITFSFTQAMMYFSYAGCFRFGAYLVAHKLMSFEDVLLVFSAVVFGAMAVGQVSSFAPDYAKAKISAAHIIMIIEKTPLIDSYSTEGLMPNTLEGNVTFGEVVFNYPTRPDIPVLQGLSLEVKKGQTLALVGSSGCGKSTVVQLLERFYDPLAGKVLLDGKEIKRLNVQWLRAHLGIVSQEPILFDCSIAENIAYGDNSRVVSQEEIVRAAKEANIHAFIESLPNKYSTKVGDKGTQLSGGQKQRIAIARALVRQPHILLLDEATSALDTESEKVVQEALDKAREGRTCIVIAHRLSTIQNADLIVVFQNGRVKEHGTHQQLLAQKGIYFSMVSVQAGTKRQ
method_notes: MDCK assay MDR-1 (p-GP): permeability across MDCK-MDR1 monolayers
Assay type: in vitro ADME
condition_notes: pH 7.4, MDCK-MDR1, Papp (b-a) divided by Papp (a-b)
Experimental: The MDCK assays provide information on the potential of a compound to pass the blood brain barrier. Permeability measurements across polarized, confluent MDCK-MDR1 cell monolayers grown on permeable filter supports are used as an in vitro absorption model: apparent permeability coefficients (PE) of the compounds across the MDCK-MDR1 cell monolayers are measured (pH 7.4, 37° C.) in apical-to-basal (AB) and basal-to-apical (BA) transport direction. […]
observed_property: efflux ratio

{"columns": ["compound_string", "observed_property", "endpoint_value"],
 "data": [
  ["O=C(OCc1ccccc1Cl)N1CCO[C@H](c2nc3cccnc3[nH]2)C1", "efflux ratio", 1.1],
  ["O=C(OCc1ccccc1)N1CCO[C@H](c2nc3cccnc3[nH]2)C1", "efflux ratio", 1.3],
  ["O=C(OCc1ccccc1F)N1CCO[C@H](c2nc3cccnc3[nH]2)C1", "efflux ratio", 1.2],
  ["Cc1ccc(COC(=O)N2CCO[C@H](c3nc4cccnc4[nH]3)C2)cc1", "efflux ratio", 1.3],
  ["Cc1ccccc1COC(=O)N1CCO[C@H](c2nc3cccnc3[nH]2)C1", "efflux ratio", 1.6],
  ["O=C(OCc1ccc(C(F)F)cc1)N1CCO[C@H](c2nc3cccnc3[nH]2)C1", "efflux ratio", 2]
]}

(1) Cc1ccnc2[nH]c([C@@H]3CN(C(=O)OCc4ccc(F)cc4)CCO3)nc12
(2) Cc1ccc(COC(=O)N2CCO[C@H](c3nc4cccnc4[nH]3)C2)cc1F
Input line: Smaller efflux ratio value? Options are 1 and 2 In your reply, give the label of the chosen option.
Output line: 2

----------
study_target: human MDR1 (P-gp) (Homo sapiens, UniProt P08183)
Construct: expressed in transfected cells; host or cells: MDCKII (Madin-Darby canine kidney) cells
method_notes: MDCK assay MDR-1 (p-GP): permeability across MDCK-MDR1 monolayers
Assay type: in vitro ADME
condition_notes: MDCK-MDR1 monolayers, apical-to-basal, pH 7.4, 1 or 10 μM
observed_property: Papp A→B (×10⁻⁶ cm/s)

{"columns": ["compound_string", "display_unit", "Papp A→B"],
 "data": [
  ["O=C(OCc1ccccc1)N1CCO[C@H](c2nc3cccnc3[nH]2)C1", "×10⁻⁶ cm/s", 40],
  ["Cc1ccccc1COC(=O)N1CCO[C@H](c2nc3cccnc3[nH]2)C1", "×10⁻⁶ cm/s", 39],
  ["O=C(OCc1ccccc1Cl)N1CCO[C@H](c2nc3cccnc3[nH]2)C1", "×10⁻⁶ cm/s", 38],
  ["O=C(OCc1ccc(Cl)cc1)N1CCO[C@H](c2nc3cccnc3[nH]2)C1", "×10⁻⁶ cm/s", 42],
  ["Cc1ccc(COC(=O)N2CCO[C@H](c3nc4cccnc4[nH]3)C2)cc1F", "×10⁻⁶ cm/s", 46]
]}

----------
study_target: NMDA NR1/NR2B receptor (Homo sapiens, UniProt Q05586+Q13224)
Sequence (Q13224 27-1484, other chains not shown): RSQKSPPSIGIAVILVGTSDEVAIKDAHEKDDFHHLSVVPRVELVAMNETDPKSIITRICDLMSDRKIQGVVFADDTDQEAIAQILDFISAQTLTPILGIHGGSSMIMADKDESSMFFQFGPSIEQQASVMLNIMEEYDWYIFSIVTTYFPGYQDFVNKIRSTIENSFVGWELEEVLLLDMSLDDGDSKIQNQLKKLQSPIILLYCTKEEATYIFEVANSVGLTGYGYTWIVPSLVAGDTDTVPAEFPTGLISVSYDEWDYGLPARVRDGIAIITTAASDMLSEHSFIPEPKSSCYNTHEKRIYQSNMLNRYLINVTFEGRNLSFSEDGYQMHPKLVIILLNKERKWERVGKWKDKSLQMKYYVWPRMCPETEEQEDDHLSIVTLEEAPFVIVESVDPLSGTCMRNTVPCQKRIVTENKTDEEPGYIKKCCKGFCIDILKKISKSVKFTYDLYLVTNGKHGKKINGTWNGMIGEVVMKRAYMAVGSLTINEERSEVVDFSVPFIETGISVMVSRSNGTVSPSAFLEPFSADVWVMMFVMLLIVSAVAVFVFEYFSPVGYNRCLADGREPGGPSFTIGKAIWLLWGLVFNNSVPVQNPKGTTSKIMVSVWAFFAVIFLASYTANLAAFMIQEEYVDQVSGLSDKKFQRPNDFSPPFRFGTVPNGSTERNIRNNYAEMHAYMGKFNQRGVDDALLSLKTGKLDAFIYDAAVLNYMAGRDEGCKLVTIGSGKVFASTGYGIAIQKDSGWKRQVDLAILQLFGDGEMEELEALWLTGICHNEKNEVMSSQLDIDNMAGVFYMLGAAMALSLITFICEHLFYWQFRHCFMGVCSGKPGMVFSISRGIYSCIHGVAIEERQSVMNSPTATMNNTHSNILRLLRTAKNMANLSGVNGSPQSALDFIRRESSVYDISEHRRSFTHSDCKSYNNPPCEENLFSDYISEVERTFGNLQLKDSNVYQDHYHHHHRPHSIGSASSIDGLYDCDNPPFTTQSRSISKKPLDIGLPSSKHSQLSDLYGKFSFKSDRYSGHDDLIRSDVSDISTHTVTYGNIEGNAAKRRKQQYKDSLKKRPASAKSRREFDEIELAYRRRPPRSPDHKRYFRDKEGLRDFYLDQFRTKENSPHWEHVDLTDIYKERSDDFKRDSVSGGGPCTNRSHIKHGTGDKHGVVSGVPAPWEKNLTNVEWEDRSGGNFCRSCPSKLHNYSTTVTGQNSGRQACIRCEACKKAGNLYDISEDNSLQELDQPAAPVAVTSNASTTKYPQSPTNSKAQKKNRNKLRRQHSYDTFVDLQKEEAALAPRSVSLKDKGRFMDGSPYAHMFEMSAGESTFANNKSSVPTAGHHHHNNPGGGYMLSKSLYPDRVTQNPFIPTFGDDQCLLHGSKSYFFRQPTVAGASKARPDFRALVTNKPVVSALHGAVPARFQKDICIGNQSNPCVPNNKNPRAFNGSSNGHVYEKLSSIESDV
method_notes: In vitro NMDA NR1/NR2b cell assay (FLIPR, intracellular calcium induced by glycine/glutamate)
condition_notes: HEK293 cells expressing NMDA NR1/NR2B, 20 μM glycine, 1 μM glutamate, compounds of the invention (Table 1)
observed_property: IC50 (nM)

Answered examples (2):
{"columns": ["compound_string", "study_target", "IC50 [nM]"],
 "data": [
  ["O=C(OCc1ccc(F)cc1Cl)N1CCO[C@H](c2nc3cccnc3[nH]2)C1", "NMDA NR1/NR2B receptor (Homo sapiens, UniProt Q05586+Q13224)", 122],
  ["O=C(OCc1ccc(F)cc1)N1CCO[C@H](c2nc3cccnc3[nH]2)C1", "NMDA NR1/NR2B receptor (Homo sapiens, UniProt Q05586+Q13224)", 83]
]}

(I) Cc1ccnc2[nH]c([C@@H]3CN(C(=O)OCc4ccc(F)cc4)CCO3)nc12
(II) O=C(OCc1ccc(Cl)cc1)N1CCO[C@H](c2nc3cccnc3[nH]2)C1
Input line: Which one would you say has the larger IC50 value: I , or II ? In your reply, give the label of the chosen option.
Output line: I
